Reference source: PubChem BioAssay (NCI)

- Test system: NCI-H322M lung
- measurement-description: NCI-60 one-dose screen, 48 h
- measurement-conditions: 10 µM unless noted
About 83,000 compounds went through this panel and 20% of them were active in at least one assay; those are over-represented in the sample as a whole. Active and inactive are the calls of the source. The calls were made as follows: active = growth percent below 10; inactive = the rest.
Answer with one of the outcomes given here: true = active, false = inactive

Prompt line: Hello, I am checking results. What call was entered for COc1ccc(/C=N/Nc2cc(=O)[nH]c3ccc(C)cc23)cc1 ?
Response line: false

Prompt line: Could you please tell me the result logged for COc1cc(C2CC(c3ccc(SC)cc3)=NN2C(C)=O)cc(OC)c1OC (configuration not stated) in this assay?
Response line: false

Prompt line: What is the recorded call for this compound in the test? COc1cccc(Oc2ccccc2NC(=O)CNC(=O)c2cccc3ccccc23)c1
Response line: false

New cases:
Prompt line: Call for entry O=C1CCC/C=C\C[C@H]2C=CC(=O)/C2=C/C[C@H](CCc2cccc(C(F)(F)F)c2)O1 :
Response line: true

Prompt line: Recorded test call requested for O=c1c2cc(F)ccc2sc2c(NCCCNCCO)nc3ccccc3c12
Response line: false

Prompt line: Could you kindly confirm the outcome this assay logged for CCOC(=O)c1c(C)oc2ncnc(N3CCN(C(=O)COc4ccc(C(C)(C)C)cc4)CC3)c12 ?
Response line: false

Prompt line: # fetch the recorded call for COc1cccc(-c2nn(-c3ccccc3)cc2-c2ccnc(N3CCOCC3)c2)c1 here
Response line: false

Prompt line: Dear all, I need the recorded test outcome for O=C(S)CNC(=O)c1ccccc1 , thank you.
Response line: false

Prompt line: Short answer needed: outcome of this test for N#CC1=C(N)Oc2c(sc3c(Br)cccc23)C1c1ccc(Br)cc1 (configuration not stated) ?
Response line: false

Prompt line: Kindly provide the recorded test outcome for the following compound: O=C1NC(=O)C(Cn2cnc3ccccc32)N1 (configuration not stated)
Response line: false

====

- System: HS 578T breast
- measurement-description: NCI-60 one-dose screen, 48 h (100 = growth as untreated, 0 = no growth, -100 = all killed)
- measurement-conditions: 10 µM unless noted
This is part of a sample that, as a whole, favours compounds with a hit. Of some 83,000 tested, about 20% had one in any assay.
Recorded growth by entry
Numeric answer only, unit % assumed.

Some solved entries appear below for comparison.
Prompt line: Return reported growth; argument: COc1ccc(-c2nc(NCCO)[nH]c(=O)c2C#N)cc1
Response line: 106

Prompt line: Recorded growth for Cc1oc2nc[nH]c(=O)c2c1C(=O)/C=C/c1ccc(Br)cc1 , please?
Response line: 24.3

Prompt line: // lookup growth for Oc1ccc(-c2nc3ccc4[nH]ncc4c3c3c2CCCC3)c2cccnc12
Response line: -14.7

More entries:
Prompt line: Which growth value belongs to c1cc2nc(-c3cn[nH]c3)c3c(c2cc1-c1cn[nH]c1)C1CCC3C1 (centres undefined) ?
Response line: 23.2

Prompt line: Returns the measured growth for the input compound. Input: COc1ccc(CNC(=O)[C@H](O)[C@@H](N)Cc2ccccc2)cc1
Response line: 102

Prompt line: Entry COc1ccc2nc(NCCCNCCO)c3sc4ccc(F)cc4c(=O)c3c2c1 : reported growth = ?
Response line: 63.5

Prompt line: Can you share its growth? I mean this compound: COc1ccc(C2C(C#N)=C(N)Oc3c2sc2c(C)cccc32)cc1 (centres undefined)
Response line: 18.6

Prompt line: What does the data say about its growth? Entry: O=C(N/N=C/[C@H](O)[C@H](O)[C@H](O)CO)c1ccc(NC(=O)c2cccnc2)cc1
Response line: 98.4

Prompt line: I would be grateful if you could share the reported growth for COc1ccc(C2NC(=O)C(C#N)c3c2sc2c(F)cccc32)c(OC)c1 (centres undefined) .
Response line: 21.4

Prompt line: Can you share its growth? I mean this compound: Cc1cc2nc3ccc(N=Nc4ccc(N(C)C)cc4)cc3n(-c3ccccc3)c-2cc1=N
Response line: -25.3

====

- Test system: KM12 colon
- measurement-description: NCI-60 one-dose screen, 48 h (100 = growth as untreated, 0 = no growth, -100 = all killed)
- measurement-conditions: 10 µM unless noted
The panel holds about 83,000 compounds, 20% with a hit somewhere; the sample as a whole holds those more often.
Checkbox rule: growth lower than 60% = criterion met; growth not lower than 60% = criterion not met.

Worked set:
Prompt line: Please determine if c1ccc(CO[C@H]2CO[C@H]3[C@@H]2OC[C@@H]3Oc2ccc(Nc3ncnc4ccsc34)cc2)cc1 is below 60% in terms of growth.
Response line: criterion not met

Prompt line: Dear colleague, could you confirm whether growth of c1cc(NCCc2ccncc2)nc(-n2cnc3ccccc32)c1 falls below 60%? Thanks.
Response line: criterion met

Prompt line: Hello, is growth of the following molecule strictly smaller than 60%? c1ccc2cc(C[n+]3ccn(CCCCCCn4cc[n+](Cc5ccc6ccccc6c5)c4)c3)ccc2c1
Response line: criterion met

Prompt line: Determine if COc1cc(C(=O)c2cc(C)c3[nH]c4ccc(C)cc4c3c2C)cc(OC)c1OC shows growth strictly lower than 60%.
Response line: criterion met

Prompt line: Bench note: check whether CSc1ccc2c(c1)c(CCN)c(C)n2Cc1ccc(Cl)c(Cl)c1 shows growth below 60%
Response line: criterion met

---
Prompt line: Is growth of c1ccc(-c2nc3nonc3nc2-c2ccccc2)cc1 strictly below 60%?
Response line: criterion not met

Prompt line: Is the reported growth for O=C(Nc1ccc(Cl)cc1F)c1cc(Cl)ccc1O strictly below 60%?
Response line: criterion met

Prompt line: Lab note: growth threshold 60%. Does this molecule come in strictly under it? COc1cc(C(=O)N2N=C(c3ccc(S(C)(=O)=O)cc3)CC2c2ccco2)cc(OC)c1OC (stereo not given)
Response line: criterion met

Prompt line: growth under 60%? Item: Cc1nc(S(=O)(=O)c2ccccc2)c(S(=O)(=O)Cc2ccc([N+](=O)[O-])cc2)o1
Response line: criterion not met

====

- System: OVCAR-4 ovarian
- measurement-description: NCI-60 one-dose screen, 48 h (100 = growth as untreated, 0 = no growth, -100 = all killed)
- measurement-conditions: 10 µM unless noted
- Protocol: Growth inhibition of the OVCAR-4 human tumor cell line is measured as a screen for anti-cancer activity. Cells are grown in 96 well plates and exposed to the test compound for 48 hours. Compounds are tested at a single concentration, which is 10^-5 M for most compounds. The reported endpoint is percent growth (GI% or GIPRCNT), where numbers from 0 - 100% represent growth inhibition, and numbers from -100% - 0 represent cell death. For example, a value of 40 represents 60% growth inhibition. […]
The panel holds about 83,000 compounds, 20% with a hit somewhere; the sample as a whole holds those more often. Calls of active or inactive are those of the source. How the source made its calls: active means growth percent below 10; inactive means the rest.
measurement-kind: growth

Prompt line: Need growth, item O=C(COc1ccc(/C=C2\Cc3ccc(Cl)cc3C2=O)cc1)Nc1nc2ccccc2s1
Response line: 109% (inactive)

Prompt line: Which growth is reported for this compound? c1cc(NCCc2ccncc2)nc(-n2cnc3ccccc32)c1
Response line: 96.7% (inactive)

Next:
Prompt line: What does the data say about its growth? Entry: Cc1ccc2c(-c3cc(-c4ccccc4)nc(N)c3C#N)cc(=O)oc2c1
Response line: 114% (inactive)

Prompt line: Give the measured growth of N#Cc1c(-c2ccccc2)nc(SCC(=O)Nc2nc(-c3ccc(Cl)cc3)cs2)[nH]c1=O .
Response line: 110% (inactive)

Prompt line: # lookup: growth of COc1ccc(N)c(N)c1
Response line: 103% (inactive)

Prompt line: Query: growth; subject: O=c1[nH]c2c(ccc3cnccc32)c2c1CCC2
Response line: 28.3% (inactive)

Prompt line: # growth lookup, item CC(=O)Oc1ccccc1C(=O)N=C1[Se]CCCN1C(=O)c1ccccc1OC(C)=O
Response line: 78.8% (inactive)

====

Below: a set of entries, each annotated with reported growth.
- Test system: UACC-62 melanoma
- measurement-description: NCI-60 one-dose screen, 48 h (100 = growth as untreated, 0 = no growth, -100 = all killed)
- measurement-conditions: 10 µM unless noted
About 83,000 compounds went through this panel and 20% of them were active in at least one assay; those are over-represented in the sample as a whole.
Report the value in % with no unit label.

Sample answers from the record:
Prompt line: Query (compound): Cc1ccc2sc3c(NCCCN)nc4ccccc4c3c(=O)c2c1 ; field requested: growth
Response line: 94.1

Prompt line: Please give the measured growth for this compound: COc1cc(/C=C/c2ccccc2)cc(OC)c1
Response line: 83.4

Prompt line: Quick one: growth for O=c1ccn(Cc2cn(-c3c4ccccc4nc4ccccc34)nn2)c(=O)[nH]1 ?
Response line: 91.4

Prompt line: What does the record list as growth for Cc1nc(/N=C(\N)NC(=O)Nc2ccccc2Cl)sc1C ?
Response line: 45.7

New cases:
Prompt line: Name the recorded growth for C=C1CC[C@H](C(C)C)[C@@H]2[C@H]1[C@H]1CC(=C)[C@@H](O)CC[C@@](C)(O)[C@@H]2O1 .
Response line: 92.8

Prompt line: Suppose we examine the compound NCCNc1nc2ccccc2c2c(=O)c3cc(F)ccc3sc12 ; what growth value has been reported?
Response line: 102

Prompt line: // lookup growth for O=C1NC(=O)C(c2ccccc2)(c2ccccc2)N1Cc1cn(-c2c3ccccc3nc3ccccc23)nn1
Response line: 72.4

Prompt line: Request the reported growth associated with Cc1nc2ccccc2c(/C=C/c2ccccc2)c1C(=O)/C=C/c1ccc(C(F)(F)F)cc1
Response line: -51.6

Prompt line: Entry Cn1cc(-c2cc3ncnc(Nc4ccc(CC(=O)Nc5cc(C(C)(C)C)nn5C)cc4)c3s2)cn1 : reported growth = ?
Response line: 33.5

Prompt line: Entry under review: COc1ccc2nc(NC(=O)c3cccnc3Nc3ccc(S(N)(=O)=O)cc3)sc2c1 . Reported growth?
Response line: 82.5

Prompt line: Would you mind telling me what growth value was observed for CN(C)CCNc1nc2ccccc2c2c(=O)c3cc(F)ccc3sc12 ?
Response line: 53.4

Prompt line: Find the recorded growth belonging to COc1ccc2c(c1OC)C(=O)O[C@H]2[C@H]1c2c(cc3c(c2OC)OCO3)CCN1C and report it.
Response line: 109

Prompt line: Entry O=c1c2cccc(F)c2sc2c(NCCCNCCO)nc3ccccc3c12 has what growth?
Response line: 59.8

Prompt line: Entry Cc1ccc(C(=O)NN2C(=O)CSC2c2ccc(Cl)cc2)cn1 (stereo unspecified) has what growth?
Response line: 93.5
